// data source = paper PMC8294059

Target: HLA-DRB1*0801 (Homo sapiens, UniProt P01903+P01911, A100R/A103L/A169T/D86S/F76Y/H45Y/I96F/K41T/L162R/M171V/P40S/Q125H/Q178H/Q39Y/Q99D/R218S/R42G/S66Y/V115G/W38E)
Experiment: biochemical
Type: binding
Settings: binding inhibition assay; NB = non-binder (no dose-dependent inhibition); read-out: DRB1*0801 IC50
Where a SMILES comes first, the peptide text is derived from it.
measured.metric: pIC50
The scale used: pIC50 is minus the common logarithm of the concentration in molar units.

Request: Form field: reported pIC50 of CC[C@H](C)[C@H](NC(=O)[C@H](CC(C)C)NC(=O)[C@H](Cc1c[nH]cn1)NC(=O)[C@H](Cc1ccccc1)NC(=O)[C@H](CCCCN)NC(=O)[C@H](CO)NC(=O)[C@H](CCCCN)NC(C)=O)C(=O)N[C@@H](CO)C(=O)N[C@@H](CCCNC(=N)N)C(=O)N[C@@H](CC(N)=O)C(=O)N[C@@H](CO)C(=O)N[C@@H](CCCNC(=N)N)C(=O)N[C@H](C(=O)N[C@@H](CC(N)=O)C(=O)N[C@@H](CCC(N)=O)C(=O)N[C@@H](Cc1ccc(O)cc1)C(N)=O)[C@@H](C)O [RIPR_009] (Ac-KSKFHLISRNSRTNQY-NH2)
Response: 4.20

Request: Now consider CC[C@H](C)[C@H](NC(=O)[C@H](Cc1ccc(O)cc1)NC(=O)[C@@H](NC(=O)[C@H](Cc1ccc(O)cc1)NC(=O)[C@H](CO)NC(=O)CNC(=O)[C@H](CCSC)NC(=O)[C@H](CCCCN)NC(=O)[C@H](CCCCN)NC(=O)[C@H](CC(N)=O)NC(=O)[C@H](CC(C)C)NC(=O)[C@H](CC(N)=O)NC(=O)[C@@H](NC(=O)[C@H](CC(C)C)NC(=O)[C@H](CC(C)C)NC(=O)[C@H](CC(C)C)NC(=O)[C@H](CCC(=O)O)NC(=O)[C@@H](N)CO)[C@@H](C)O)[C@@H](C)CC)C(N)=O [RH5_010B] (H-SELLLTNLNKKMGSYIYI-NH2) and answer again.
Response: 5.19

Request: Now consider CC[C@H](C)[C@H](NC(=O)[C@H](CC(N)=O)NC(=O)[C@H](CCC(N)=O)NC(=O)[C@H](CC(N)=O)NC(=O)[C@H](CC(N)=O)NC(=O)[C@H](Cc1ccccc1)NC(=O)[C@@H](NC(=O)[C@H](CS)NC(=O)[C@H](CC(C)C)NC(=O)[C@H](Cc1ccc(O)cc1)NC(=O)[C@H](CC(=O)O)NC(=O)[C@@H](N)Cc1ccc(O)cc1)C(C)C)C(=O)N[C@H](C(=O)N[C@@H](CO)C(=O)N[C@@H](CC(=O)O)C(=O)N[C@@H](CCCCN)C(=O)N[C@@H](CC(N)=O)C(N)=O)[C@@H](C)O [RIPR_007] (H-YDYLCVFNNQNITSDKN-NH2) and answer again.
Response: 4.00
